studyTarget: VIPR2 (Homo sapiens, UniProt P41587)
Sequence (P41587 24-438): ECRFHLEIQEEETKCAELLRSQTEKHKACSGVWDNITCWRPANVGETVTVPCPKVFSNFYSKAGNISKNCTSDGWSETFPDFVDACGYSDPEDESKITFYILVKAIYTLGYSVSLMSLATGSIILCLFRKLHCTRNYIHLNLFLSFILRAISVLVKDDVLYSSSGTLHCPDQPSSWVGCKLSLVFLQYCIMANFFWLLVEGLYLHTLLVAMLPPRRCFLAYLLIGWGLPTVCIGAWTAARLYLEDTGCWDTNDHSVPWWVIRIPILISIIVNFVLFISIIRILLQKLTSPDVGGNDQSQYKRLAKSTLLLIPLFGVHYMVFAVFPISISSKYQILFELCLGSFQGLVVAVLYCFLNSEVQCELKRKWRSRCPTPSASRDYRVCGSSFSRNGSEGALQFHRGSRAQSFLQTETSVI
assayExplanation: Inhibition of VIP-induced cAMP elevation (% Activity cAMP)
Type: cell-based
Design: expressed in transfected cells; host or cells: HEK293 cells transfected with VIPR2 in pCDNA3.1 (as described)
assayConditions: 1 μM, Batch 1
measurementLabel: inhibition at 1 µM (%)
Provide only the numeric value, understood in %.

Sample answers from the record:
{"columns": ["structureNotation", "inhibition at 1 µM, %"],
 "data": [
  ["COc1ccc(S(=O)(=O)NC[C@@H](O)C[C@@H](Cc2ccccc2)C(=O)N[C@H]2c3ccccc3C[C@H]2O)cc1", 45.9],
  ["CC(C)CS(=O)(=O)NC[C@@H](O)C[C@@H](Cc1ccccc1)C(=O)N[C@H]1c2ccccc2C[C@H]1O", 15.6],
  ["CC(C)c1ccc(S(=O)(=O)NC[C@@H](O)C[C@@H](Cc2ccccc2)C(=O)N[C@H]2c3ccccc3C[C@H]2O)cc1", 44.2],
  ["O=C(CCCCl)NC[C@@H](O)C[C@@H](Cc1ccccc1)C(=O)N[C@H]1c2ccccc2C[C@H]1O", 18.2],
  ["Cc1cc(S(=O)(=O)NC[C@@H](O)C[C@@H](Cc2ccccc2)C(=O)N[C@H]2c3ccccc3C[C@H]2O)c(C)cc1Cl", 21.6]
]}

get_value(item= `O=C(NC[C@@H](O)C[C@@H](Cc1ccccc1)C(=O)N[C@H]1c2ccccc2C[C@H]1O)c1ccccc1[N+](=O)[O-]` , readout=inhibition at 1 µM) returns 14.3

get_value(item= `O=C(NC[C@@H](O)C[C@@H](Cc1ccccc1)C(=O)N[C@H]1c2ccccc2C[C@H]1O)c1cccc([N+](=O)[O-])c1` , readout=inhibition at 1 µM) returns 11
